System: A498 renal
TEST NAME: NCI-60 one-dose screen, 48 h
TEST CONTEXT: 10 µM
About 83,000 compounds went through this panel and 20% of them were active in at least one assay; those are over-represented in the sample as a whole. Active and inactive are the calls of the source. Rule for the calls: active = growth percent below 10; inactive = the rest.
Pick one: y for active, n for inactive

As a guide, the following entries are already answered.
>  <COMPOUND>
COc1ccc(-c2nnc(SC/C(=N\O)c3ccccc3)o2)cc1

>  <ASSAY SYSTEM>
A498 renal

>  <ASSIGNED CLASS>
n

$$$$
>  <COMPOUND>
N/C(=N\O)c1cn(C2OC(CO)C(O)C2O)c2ncnc(N)c12 (configuration not stated)

>  <ASSAY SYSTEM>
A498 renal

>  <ASSIGNED CLASS>
y

$$$$
>  <COMPOUND>
C=CCN1C(=O)/C(=C\c2ccc3c(c2)CCC3)SC1=S

>  <ASSAY SYSTEM>
A498 renal

>  <ASSIGNED CLASS>
n

$$$$
>  <COMPOUND>
CCCCC(CC#N)(CCC)CCC

>  <ASSAY SYSTEM>
A498 renal

>  <ASSIGNED CLASS>
n

$$$$

Lookup: Which outcome did this test record for the compound CCN(CC)c1ccc(/C=C/C2=[N+](C)c3ccccc3C2(C)C)c(C)c1 ?
Found: y

Lookup: Outcome logged for C=CCn1ccc(=O)nc1SC in this assay:
Found: n

Lookup: Could you check what this test reported for COc1ccc(COC(=O)CC(C)C)cc1 ?
Found: n

Lookup: I would be grateful if you could indicate the recorded call for COc1ccc2nc(/C=C/c3ccc(N(C)C)cc3)sc2c1 .
Found: n

###

System: OVCAR-3 ovarian
TEST NAME: NCI-60 one-dose screen, 48 h
TEST CONTEXT: 10 µM
This is part of a sample that, as a whole, favours compounds with a hit. Of some 83,000 tested, about 20% had one in any assay. Active and inactive are the calls of the source. The calls were made as follows: active = growth percent below 10; inactive = the rest.
One label from this list, please: active, inactive

>  <COMPOUND>
CC(=O)OC1Oc2ccccc2-c2oc(=O)c(-c3ccc(F)cc3)cc21 (stereo not given)

>  <ASSIGNED CLASS>
inactive

$$$$

Lookup: What call does the record list for COc1ccc(-c2nc(NC(=O)CS(=O)(=O)c3ccc(F)cc3)sc2C)cc1 ?
Found: inactive

Lookup: What did this assay record as the result for CCOCC[P+](c1ccccc1)(c1ccccc1)c1ccccc1 ?
Found: inactive

Lookup: Hi team, can someone confirm the assay call for COc1nc2c(c(=O)[nH]1)C(c1ccc(Oc3ccnc4cc(Cl)ccc34)c(OC)c1)C=C(c1cc(OC)c(OC)c(OC)c1)N2 (stereo not given) ?
Found: inactive

Lookup: Look up the recorded call for Nc1ccc(C2=CC(c3ccc(Cl)cc3)N3C=CSC3=N2)cc1 (stereo not given) in this test.
Found: active

###

Test system: HCC-2998 colon
TEST NAME: NCI-60 one-dose screen, 48 h (100 = growth as untreated, 0 = no growth, -100 = all killed)
TEST CONTEXT: 10 µM
Compounds without any hit were thinned out: in the full panel of roughly 83,000, 20% have a hit.
Label key: YES means growth under 90%; NO means growth of 90% or more.

>  <COMPOUND>
CCC(O)c1ccc(Br)cc1NC(=O)c1cccc(Cl)c1 (stereo not given)

>  <ASSIGNED CLASS>
YES

$$$$
>  <COMPOUND>
COc1ccc(-c2cn[nH]c2-c2cc(OC)c(OC)c(OC)c2)cc1

>  <ASSIGNED CLASS>
YES

$$$$
>  <COMPOUND>
COc1ccc(-c2[nH]ncc2/C=C/c2cc(C(F)(F)F)[nH]c(=O)n2)cc1

>  <ASSIGNED CLASS>
NO

$$$$
>  <COMPOUND>
O/N=C1\CCC2CCCCC2C1 (stereo not given)

>  <ASSIGNED CLASS>
NO

$$$$

Lookup: Confirm or reject: growth of Cn1c(N)c(N=Cc2ccccc2)c(=O)n(C)c1=O lies strictly below 90%
Found: NO
